# ASSAYED_SYSTEM: HiSiaP (Haemophilus influenzae, UniProt P44542, S67C/S194C)
# CONDITIONS_USED: 50 mM Tris pH 8, 50 mM NaCl; average of triplicates; CLOSED #1, no oxidant added
ASSAY_METRIC: Kd (µM)
State just the number; it will be interpreted in µM.

Enquiry: Returns the measured Kd for the input molecule. Input: CC(=O)N[C@H]1[C@H]([C@H](O)[C@H](O)CO)OC(O)(C(=O)O)C[C@@H]1O (stereo partly shown) [Neu5Ac]
Return: 0.8
